Reference source for all entries: the supplement of paper PMC10567573

B1: INTS3 (parent)
chain: AQLQALRQKEVDFCISLLRERFME

# Variants of: B1
# PROCEDURE_DETAILS: protein stability index of a GFP-peptide fusion (GPS, HEK-293T) (PSI 1-6); higher = more stable;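 further: lentivirally expressed fusions sorted by FACS into six bins by GFP to DsRed ratio, PSI derived from sequencing read proportions per bin multiplied by bin number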
# EXPERIMENTAL_CONTEXT: c terminus: a fixed tail appended
Class assignment keyed on protein stability index, ranges low range (below 2), mid range (2 to below 3), high range (3 or more)

[Q] Class for `L3T` ?
[A] low range

[Q] Class for `A1V` ?
[A] mid range

[Q] Class for `R7D` ?
[A] low range

[Q] Class for `R7W` ?
[A] mid range

[Q] Class for `Q2M` ?
[A] high range

[Q] Class for `M23I` ?
[A] mid range

[Q] Class for `D12R` ?
[A] mid range

[Q] Class for `L18H` ?
[A] low range

[Q] Class for `D12F` ?
[A] low range

[Q] Class for `S16Y` ?
[A] high range
